Values compiled from PubChem BioAssay (NCATS).

Experiment: qHTS assay for small molecule agonists of the antioxidant response element (ARE) signaling pathway (AID 651741)
Settings: HepG2 ARE-bla reporter, beta-lactamase FRET ratio, 16 h; series mostly up to 96 µM
Records with an inconclusive call do not appear. The source made the active and inactive calls. Calls come from the whole dose curve; as a rule, active = well fitted activation curve with a large enough effect in the signal ratio; inconclusive = small, poorly fitted or top-dose-only effect, or effect the other way, or a change in a side signal; inactive = flat fitted curve, though single readings scatter; the % refers to the signal ratio.
Respond with a class label; see y for active, n for inactive

compound	label value
Cc1ccc2oc(=O)ccc2c1	y
C[C@@H]1CC2(OC3C[C@@]4(C)C5=CC[C@H]6C(C)(C)C(O[C@@H]7OC[C@@H](O)[C@H](O)[C@H]7O)CC[C@@]67C[C@@]57CC[C@]4(C)C31)OC(O)C1(C)OC21 (stereo not given in full)	y
CCCCC/C=C/C=C/C=O	y
Cc1ccc2cccnc2c1	n
Cc1cc(C)c(N)cc1C	n

Now examine the next entry.
### Prompt Please state the recorded outcome for this compound: FB(F)F
### Response n

----------
Molecular target: Peroxisome proliferator-activated receptor gamma (Homo sapiens) (UniProt P37231)
Sequence (P37231 whole entry, looked up): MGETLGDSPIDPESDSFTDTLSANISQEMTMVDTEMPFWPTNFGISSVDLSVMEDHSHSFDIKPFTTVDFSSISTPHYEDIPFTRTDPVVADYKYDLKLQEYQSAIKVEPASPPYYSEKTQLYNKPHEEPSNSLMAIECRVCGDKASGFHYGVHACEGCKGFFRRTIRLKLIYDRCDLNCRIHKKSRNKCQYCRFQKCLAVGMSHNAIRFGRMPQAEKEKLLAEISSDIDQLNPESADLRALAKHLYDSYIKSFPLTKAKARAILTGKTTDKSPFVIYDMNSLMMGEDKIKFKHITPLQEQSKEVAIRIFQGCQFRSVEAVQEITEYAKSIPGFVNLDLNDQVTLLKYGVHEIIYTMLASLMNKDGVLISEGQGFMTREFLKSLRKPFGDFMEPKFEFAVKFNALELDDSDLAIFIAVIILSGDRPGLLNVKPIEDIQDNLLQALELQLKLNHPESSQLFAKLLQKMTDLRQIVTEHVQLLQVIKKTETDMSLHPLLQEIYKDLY
Assay: qHTS assay for small molecule antagonists of peroxisome proliferator-activated receptor gamma signaling (AID 588537);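 note: reporter cells co-stimulated with 50 nM rosiglitazone agonist during compound treatment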
Conditions: HEK293 PPARg-UAS-bla, beta-lactamase ratio, antagonist mode; series mostly up to 76.8 µM
Results filed as inconclusive are left out. The source made the active and inactive calls. Calls come from the whole dose curve; as a rule, active = well fitted inhibition curve with a large enough effect in the signal ratio, with a control signal flat (not every such curve was filed as active); inconclusive = small, poorly fitted or top-dose-only effect, or effect the other way, or a change in a side signal; inactive = flat fitted curve, though single readings scatter; the % refers to the signal ratio.
reported property: outcome

>>> print(df.to_string())
                                   compound  reported_property    result
0                                 CCCCCCC=O            outcome  inactive
1              O=P(O)(OCc1ccccc1)OCc1ccccc1            outcome  inactive
2  C=C(C)C1CC=C(C)C(OC(C)=O)C1 (stereo not given)            outcome  inactive
3                  Cc1cccc(C)c1[N+](=O)[O-]            outcome  inactive
4       O=C1OC(=O)c2c(Br)c(Br)c(Br)c(Br)c21            outcome  inactive

Give outcome for each of the items listed below.
1. Nc1ccc([N+](=O)[O-])c(N)c1
2. Cc1ccc(C)c([N+](=O)[O-])c1
3. BrC/C=C/CBr
4. CC(=C/C=C/C(C)=C/C=C/C=C(C)/C=C/C=C(C)/C=C/C(=O)O)/C=C/C(=O)O
5. NC(=O)/N=N/C(N)=O
6. COc1ccc(N)c(OC)c1

### Response
1: inactive; 2: inactive; 3: inactive; 4: inactive; 5: inactive; 6: inactive

Give outcome for each of the items listed below.
1. O=Cc1ccccc1Cl
2. Cc1cccc(C)c1

### Response
["inactive", "inactive"]

Give outcome for each of the items listed below.
1. CCOCCOCC
2. BrC(Br)C(Br)Br
3. O=C(O)c1ccccc1[N+](=O)[O-]
4. CCCCCCO
5. Cc1cccc(C(=O)O)c1[N+](=O)[O-]
6. c1ccc(Nc2ccccc2)cc1
7. Cc1ccc2ccccc2c1[N+](=O)[O-]
8. FC(F)(F)c1ccccc1Cl

### Response
1. inactive
2. inactive
3. inactive
4. inactive
5. inactive
6. inactive
7. inactive
8. inactive

----------
Test: Cell Viability - LYMP2-002 (AID 977);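 note: compound exposure lasted 24 h at 37 °C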
Settings: LYMP2-002 lymphoblastoid cell viability, qHTS; series mostly up to 92.2 µM
Results filed as inconclusive are left out. Active and inactive are the calls of the source. Calls come from the whole dose curve; as a rule, active = well fitted cell-killing curve with a large enough effect; inconclusive = small, poorly fitted or top-dose-only effect; inactive = flat fitted curve, though single readings scatter.
reported property: outcome

Recorded results for 4 compounds are shown here.
input smiles	outcome
CCCCN(CCO)CCCC	inactive
C[C@@H]1O[C@@H](O[C@@H]2[C@@H](O)[C@H](OCCc3ccc(O)c(O)c3)O[C@H](CO[C@@H]3O[C@H](CO)[C@@H](O)[C@H](O)[C@H]3O)[C@H]2OC(=O)/C=C/c2ccc(O)c(O)c2)[C@H](O)[C@H](O)[C@H]1O	inactive
Nc1cc([N+](=O)[O-])ccc1C(=O)O	inactive
Cc1cc([N+](=O)[O-])ccc1N	inactive

Consider the record given below.
### Prompt What measured outcome goes with Cc1cccc([N+](=O)[O-])c1C(=O)O ?
### Response inactive
